test system: MS2 coat protein; test: apparent KD of MS2 coat protein; designed switch direction (-1 OFF switch, 1 ON switch): -1; higher = weaker reporter binding; settings: Eterna round: R95; input ligand: microRNA oligo, concentration not stated
Entries and their measured apparent KD of MS2 coat protein follow.

Solved cases below.
[[record]]
sequence_data = "CUUUAGCUAGGAUAUACAUGAGGAUCACCCAUGUUAGCGGCCAAUUGGACCGCGGGUUGUAGAAGGAGCAUUAA [Atantiza] (puzzle: Exclusion 3)"
reported_measurement = "0.0298 µM"

[[record]]
sequence_data = "GUUAAGGUAGGAUAUACGAUAAUAUAGGGUAGAAUUAUAACACAUGAGGAUCACCCAUGUAGAAGGACCAAUUG [Mat - Exclusion 2 - Mod of my Tesla design - D52] (puzzle: Exclusion 2)"
reported_measurement = "0.0258 µM"

[[record]]
sequence_data = "AUAAAGCGAGGAUAUACAUGAGGAUCACCCAUGUGGCAGCCAGGUAGGAGUGACGUCGGUAGAAGGCGCACCCU [Quleraer] (puzzle: Exclusion 3)"
reported_measurement = "0.0242 µM"

[[record]]
sequence_data = "GAUUAUGCGAGCUUUAGGGACAUGAGGAUCACCCAUGUUCGUCUUAUUAAUCUGGGUACACUGGCAUACCUAAAUCU [JMF 7] (puzzle: Sensor v3, turn-off variant 1)"
reported_measurement = "0.0377 µM"

[[record]]
sequence_data = "CUUUUGUGAGGAUAUUAUUAGUAAAUAAAUAAAAUUACUACUGAGAAGGCACAUGAGGAUCACCCAUGUUCCUC [salish99_ex4_r3_048] (puzzle: Exclusion 4)"
reported_measurement = "0.0288 µM"


Fill blank: measured apparent KD of MS2 coat protein of the sequence UAUUAGUUAGGAUAUACAUGAGGAUCACCCAUGUCACGGGUCCACUUGUCCUAUGCGUGUAGAAGGAGCGACCC [JL Ceriza mod 4] (puzzle: Exclusion 3) is ____.
0.0192 µM

Fill blank: measured apparent KD of MS2 coat protein of the sequence GAAAAGGUAGGAUAUACGAAAAAAAAGGGUAGAAAAAAUACACAUGAGGAUCACCCAUGUAGAAGGACCAAAAG [salish99_ex2_r3_073] (puzzle: Exclusion 2) is ____.
0.0239 µM

Fill blank: measured apparent KD of MS2 coat protein of the sequence AUUUAACAUGAGGAUCACCCAUGUGAGGAUAUGUCCAUUUUAAACAAAUAGGAUAUGGACAGAAGGCACACCGG [JR_Exclusion1_Sub007] (puzzle: Exclusion 1) is ____.
0.219 µM

Fill blank: measured apparent KD of MS2 coat protein of the sequence CUGUAACGAGCGUGAGCCGACAUGAGGAUCACCCAUGUGCUCGUCUUAUAACGUACUGUCACGUUAGUGAUAGUGCG [Sensor v3, turn-off variant 1 (MOD of Eli's v1-13 v.2)] (puzzle: Sensor v3, turn-off variant 1) is ____.
0.0747 µM

Fill blank: measured apparent KD of MS2 coat protein of the sequence GAUUAUGCGAGCUUUAGGGACAUGAGGAUCACCCAUGUUCGUCUUAUUGGUCUAAAUGCACUAACAUACCUAAAUCU [JMF 23] (puzzle: Sensor v3, turn-off variant 1) is ____.
0.0224 µM

Fill blank: measured apparent KD of MS2 coat protein of the sequence UAAAAGCUAGGAUAUACAUGAGGAUCACCCAUGUCACGGGUCCACUCAUCCUAUACGUGUAGAAGGAGCGACCC [Ceriza] (puzzle: Exclusion 3) is ____.
0.02 µM

###

tested on: MS2 coat protein; assay: apparent KD of MS2 coat protein; designed switch direction (-1 OFF switch, 1 ON switch): -1; higher = weaker reporter binding; conditions: Eterna round: R95; input ligand: microRNA oligo, concentration not stated
param class (str): category from apparent KD of MS2 coat protein; see ranges bin 1 = under 20 nM, bin 2 = from 20 nM up to 50 nM, bin 3 = 50 nM and over

Please review the entries below; each comes with its answer.
[[record]]
sequence_data = "AGUACUAUGCGUGCUGACAUGCGUAGUGCAGCAGGUGUAACAUGAGGAUCACCCAUGUCCUCAUUUGCUCGUCUUAA [Mat - Sensor v3 - Turn-off var 2 - D13] (puzzle: Sensor v3, turn-off variant 2)"
tested_system = "MS2 coat protein"
discrete_label = "bin 3"

[[record]]
sequence_data = "UUUAAUUUUUUUUUUUUACAAGCUUUUUGCUCGUCUUAUACAUGAGGAUCACCCAUGUGGGUGAGGAGUAAAUUAUC [JMF 61] (puzzle: Sensor v3, turn-off variant 2)"
tested_system = "MS2 coat protein"
discrete_label = "bin 1"

[[record]]
sequence_data = "CUGGUCCGAGGAUAUAUUAAGUGAUACAUGAGGAUCACCCAUGUAAUUUAAUGGAAGUAAAUAGAAGGCGGACUAG [Mat - Exclusion 5 - JL mod - D50] (puzzle: Exclusion 5)"
tested_system = "MS2 coat protein"
discrete_label = "bin 3"

[[record]]
sequence_data = "AAAAAGAUAGGAUAUACAAUAAAAUAAAAUAAAAUAAAUACACAUGAGGAUCACCCAUGUAGAAGGAUCGAAAA [Exclusion 2 #1] (puzzle: Exclusion 2)"
tested_system = "MS2 coat protein"
discrete_label = "bin 2"

[[record]]
sequence_data = "AUAUUACGAGGAUAUCGUUUUUAUCACAUGAGGAUCACCCAUGUAAUUUAUGUUUCGUUUCGAGAAGGCGUAAGUU [JR_E5_Sub068] (puzzle: Exclusion 5)"
tested_system = "MS2 coat protein"
discrete_label = "bin 1"

[[record]]
sequence_data = "AAAGUGUGAGGAUAUCCGGGACUGGGCCGGGAGGUUCGGAAGGAGAAGGCACAUGAGGAUCACCCAUGUAACGG [Excls4-X] (puzzle: Exclusion 4)"
tested_system = "MS2 coat protein"
discrete_label = "bin 2"


Bin this entry: GGCAAUAACGAGGAUAUCGUAUCGGAAACGAUACGAGAAGGUGUAACAUGAGGAUCACCCAUGUUCCUUAAGCC [Fiskers Ex 6 - 9] (puzzle: Exclusion 6)
bin 2

Bin this entry: GAUUAUGCGAGCUUUAGGGACAUGAGGAUCACCCAUGUUCGUCUUAUUGAUCUGGAUGCACUGACAUACCUAAAUCU [JMF 80] (puzzle: Sensor v3, turn-off variant 1)
bin 2

Bin this entry: UGAUCCCAUGUCAGGAUAUAGAGGCGGUAGCCUGGCUAGAAGGGACAUGAGGAUCACCCAUGUCGGUUCUUGCC (puzzle: Brourd's mod of Exclusion 4)
bin 2

Bin this entry: AAGAAGCGAGGAUAUGCAAAAGAAAAGAAGAAGAAGAAAGAACAUGAGGAUCACCCAUGUAGAAGGCGCAAGAA [Mine, too!] (puzzle: Exclusion 2)
bin 2

Bin this entry: AGAAGUAGCAACCGAUCCUACAUGAGGAUCACCCAUGUAGCAAGACGUGCACGCGAAGCUCGUCAGACUACCAGAUG [salish99_TOv1_r3_022] (puzzle: Sensor v3, turn-off variant 1)
bin 3

Bin this entry: CCUCCACAUGAGGAUCACCCAUGUCAGGAUAUCGUGUGUUUUUUUUCGGUCGUGCGUGCGAGAAGGGACGUCUU (puzzle: Exclusion 1)
bin 2

Bin this entry: GAAAAGGUAGGAUAUACGAAAAAAAAGGGAAGAAAAAAAACACAUGAGGAUCACCCAUGUAGAAGGACCAAAAG [salish99_ex2_r3_064] (puzzle: Exclusion 2)
bin 2

Bin this entry: GCAUGGAAAGUGAGGAUAUACCACUGGAUACAGUGGUAGAAGGCACAUGAGGAUCACCCAUGUUCCUACCAUGC [Fiskers BMX 4 - 39] (puzzle: Brourd's mod of Exclusion 4)
bin 1

Bin this entry: UUUUUUGUAGUGAGGAUAUCGUUGAGGAUGUGGAUCGAGAAGGCACAUGAGGAUCACCCAUGUUAGAUGUGGUU [JR_BMOE4_Sub083] (puzzle: Brourd's mod of Exclusion 4)
bin 3

Bin this entry: AAUAAACUAGGAUAUACAUGAGGAUCACCCAUGUGUCGCCACGUGCUUGCUCACUCGUGUAGAAGGAGUACGGA [Atisan] (puzzle: Exclusion 3)
bin 2

Bin this entry: AGAUGGCGAGGAUAUACAUGAGGAUCACCCAUGUGAGAUAAUAAAGUGAGGAAGAAAAGUAGAAGGCGCUGUCA [Mat - Exclusion 3 - Mod of Salish D13] (puzzle: Exclusion 3)
bin 3

Bin this entry: GUAGGGUCAGGAUAUACGGGCGGAGGGAUGUAUUGUAGUUGGUAGAAGGGACAUGAGGAUCACCCAUGUAAGAA [JR_Exclu4_Sub055] (puzzle: Exclusion 4)
bin 2

Bin this entry: GUGUGCAGAGGAUAUACAUAGGAAAAUAAAAGAGAAGUGGGACAUGAGGAUCACCCAUGUAGAAGGCUGAGUGU [Excluse me!! 22 - Jieux - Exclusion 2] (puzzle: Exclusion 2)
bin 3

Bin this entry: ACACUACAUGAGGAUCACCCAUGUCAGGAUAUCGAUAUCACAACUCAUCAACCUCACUCGAGAAGGGACACAUA [wifeneedsadrink] (puzzle: Exclusion 1)
bin 2

Origin of measurements: the supplement of paper PMC9170038
